B1: ZNF263 (parent)
chain: HLTRHQRTHTGEKPYKCTLCGENF

Variants of: B1
Experiment: protein stability index of a GFP-peptide fusion (GPS, HEK-293T) (PSI 1-6); higher = more stable;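 further: lentivirally expressed fusions sorted by FACS into six bins by GFP to DsRed ratio, PSI derived from sequencing read proportions per bin multiplied by bin number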
Conditions: c terminus: a fixed tail appended
Rule: protein stability index of 3 or more gives fulfilled; anything lower gives not fulfilled.

Determine whether measured protein stability index meets or exceeds 3 for E22F
not fulfilled

Determine whether measured protein stability index meets or exceeds 3 for G21L
not fulfilled

Determine whether measured protein stability index meets or exceeds 3 for E22S
not fulfilled

Determine whether measured protein stability index meets or exceeds 3 for E12Q
not fulfilled

Determine whether measured protein stability index meets or exceeds 3 for F24T
fulfilled

---
Determine whether measured protein stability index meets or exceeds 3 for H9W
not fulfilled

Determine whether measured protein stability index meets or exceeds 3 for H1C
fulfilled

Determine whether measured protein stability index meets or exceeds 3 for N23V
not fulfilled

Determine whether measured protein stability index meets or exceeds 3 for G21T
not fulfilled

Determine whether measured protein stability index meets or exceeds 3 for E12L
not fulfilled
